Where do the numbers come from? From patent US20120058135A1.

- tgt: native protein obtained from a soluble epimastigote fraction (proline racemase) (Trypanosoma cruzi)
- Sequence (Q868H8 whole entry): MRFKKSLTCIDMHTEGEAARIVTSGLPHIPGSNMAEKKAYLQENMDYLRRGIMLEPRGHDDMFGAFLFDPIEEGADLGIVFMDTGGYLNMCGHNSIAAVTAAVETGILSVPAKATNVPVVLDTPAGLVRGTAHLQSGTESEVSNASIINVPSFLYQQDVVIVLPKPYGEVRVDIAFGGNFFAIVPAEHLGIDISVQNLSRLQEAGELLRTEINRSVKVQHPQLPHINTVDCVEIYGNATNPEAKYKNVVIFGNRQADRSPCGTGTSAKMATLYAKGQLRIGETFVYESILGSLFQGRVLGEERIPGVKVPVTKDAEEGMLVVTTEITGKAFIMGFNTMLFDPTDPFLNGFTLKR
measurement name: pKi
Notebook: values listed as pKi are -log10 of the concentration (mol/L).

stdin: State the recorded pKi for this entry: O=C(O)c1ccc[nH]1 [PAC, pyrrole-2-carboxylic acid]
stdout: 5.94
